Molecular target: mouse TLR7 (Mus musculus)
Sequence (P58681 27-1050): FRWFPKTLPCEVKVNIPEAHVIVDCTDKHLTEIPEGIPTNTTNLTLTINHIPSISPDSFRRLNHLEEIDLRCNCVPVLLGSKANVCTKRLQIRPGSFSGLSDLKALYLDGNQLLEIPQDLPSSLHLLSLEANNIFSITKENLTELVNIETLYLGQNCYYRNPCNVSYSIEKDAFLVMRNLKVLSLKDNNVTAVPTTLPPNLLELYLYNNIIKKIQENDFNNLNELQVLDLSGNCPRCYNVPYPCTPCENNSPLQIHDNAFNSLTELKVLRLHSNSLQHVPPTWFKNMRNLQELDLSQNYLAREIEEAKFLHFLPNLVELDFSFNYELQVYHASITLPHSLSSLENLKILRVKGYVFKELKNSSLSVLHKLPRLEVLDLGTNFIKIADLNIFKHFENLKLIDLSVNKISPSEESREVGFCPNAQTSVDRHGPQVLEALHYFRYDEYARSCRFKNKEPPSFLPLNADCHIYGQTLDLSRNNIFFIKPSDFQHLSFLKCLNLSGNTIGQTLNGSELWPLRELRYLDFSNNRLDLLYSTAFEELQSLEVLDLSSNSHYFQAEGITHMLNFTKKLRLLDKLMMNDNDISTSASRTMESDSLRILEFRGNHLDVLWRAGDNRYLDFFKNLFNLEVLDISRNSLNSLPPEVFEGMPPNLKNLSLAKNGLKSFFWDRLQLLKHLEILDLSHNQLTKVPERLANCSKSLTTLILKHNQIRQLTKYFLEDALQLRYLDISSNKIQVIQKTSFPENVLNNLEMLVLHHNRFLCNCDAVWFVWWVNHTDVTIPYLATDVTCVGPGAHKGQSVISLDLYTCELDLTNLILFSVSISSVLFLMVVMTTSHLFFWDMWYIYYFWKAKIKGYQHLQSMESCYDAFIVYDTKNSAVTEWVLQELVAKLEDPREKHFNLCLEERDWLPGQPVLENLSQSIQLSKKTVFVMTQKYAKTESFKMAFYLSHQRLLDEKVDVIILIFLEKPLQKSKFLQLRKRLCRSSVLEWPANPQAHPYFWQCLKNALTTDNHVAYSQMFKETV
Test: Short-term in vivo (STIV) assay: oral dosing, R848 s.c., plasma IL-6
Design: female BALB/c mice (Jackson Labs, Bar Harbor, Me.) were dosed by oral gavage; tissue Jackson Labs; host or cells: living female BALB/c mice; plasma IL-6 after s.c. R848
Conditions: 19 h; 11 mg/kg

>  <Molecule>
CC1CN(c2ccc(C#N)c3ncccc23)CC(CN2CCN(C)CC2C)O1 (centres unmarked) [ER-889556]

>  <% Suppression vs. Vehicle [%]>
29

$$$$
>  <Molecule>
C[C@@H]1CN(c2ccc(C#N)c3ncccc23)C[C@H](CN2CCC(N3CCCCC3)CC2)O1 [ER-887927]

>  <% Suppression vs. Vehicle [%]>
94

$$$$
>  <Molecule>
CC1CN(c2ccc(C#N)c3ncccc23)CC(CN2CCNCC2C)O1 (centres unmarked) [ER-887268]

>  <% Suppression vs. Vehicle [%]>
25

$$$$
>  <Molecule>
C[C@@H]1CN(c2ccc(C#N)c3ncccc23)C[C@H](CN2CCN(C)[C@H](C)C2)O1 [ER-890346]

>  <% Suppression vs. Vehicle [%]>
0

$$$$
>  <Molecule>
C[C@@H]1CN(c2ccc(C#N)c3ncccc23)C[C@H](CNC2CCCCC2)O1 [ER-886611]

>  <% Suppression vs. Vehicle [%]>
19

$$$$
>  <Molecule>
C[C@@H]1CN(c2ccc(C#N)c3ncccc23)C[C@H](CNC2CCCC2)O1 [ER-887145]

>  <% Suppression vs. Vehicle [%]>
0

$$$$
>  <Molecule>
C[C@@H]1CN(c2ccc(C#N)c3ncccc23)C[C@H](CN2CCC(N3CCCC3)CC2)O1 [ER-888480]

>  <% Suppression vs. Vehicle [%]>
63

$$$$
>  <Molecule>
CC1CN(c2ccc(C#N)c3ncccc23)CC(CN2CCC(N3CCCCC3)C2)O1.Cl.Cl (centres unmarked) [ER-890311]

>  <% Suppression vs. Vehicle [%]>
0

$$$$

Data origin, for the record: patent USRE47193E1
